Target: DYNC1H1 Cytoplasmic dynein 1 heavy chain 1 (Homo sapiens)
Construct: isoTOP-ABPP experiments performed in cell lysates (in vitro); endogenous in cells; host or cells: soluble proteome of human cancer cell lines (MDA-MB-231, Ramos, Jurkat)
Test: competitive isoTOP-ABPP
Format: binding
Conditions: Q14204_K1649; 50 uM, 231 sol, in vitro
R value (DMSO/fragment) for probe 1 labeling values by entry
Output spec: single numeric token, no unit.

Before answering, review these 4 worked examples.
molecule: O=C(Oc1c(F)c(F)c(F)c(F)c1F)c1cc(C(F)(F)F)cc(C(F)(F)F)c1
obsValue: 1.4
--
molecule: O=C(Oc1c(F)c(F)c(F)c(F)c1F)C(c1ccccc1)c1ccccc1 [fragment 20, Pentafluorophenyl 2,2-diphenylacetate]
obsValue: 1.0
--
molecule: O=C(CCc1cn(-c2ccccc2)nc1-c1ccccc1)Oc1c(F)c(F)c(F)c(F)c1F
obsValue: 1.0
--
molecule: COc1cc(CCC(=O)Oc2c(F)c(F)c(F)c(F)c2F)cc(OC)c1OC
obsValue: 1.7

Next molecule, R value (DMSO/fragment) for probe 1 labeling to be filled in.
Record summary for `Cn1cc(CC(=O)Oc2c(F)c(F)c(F)c(F)c2F)c2ccccc21` : reported R value (DMSO/fragment) for probe 1 labeling = 1.1

====

Biological target: DCTN2 Dynactin subunit 2 (Homo sapiens, UniProt Q13561)
Construct: isoTOP-ABPP experiments performed in cell lysates (in vitro); endogenous in cells; host or cells: soluble proteome of human cancer cell lines (MDA-MB-231, Ramos, Jurkat)
Sequence (Q13561 whole entry): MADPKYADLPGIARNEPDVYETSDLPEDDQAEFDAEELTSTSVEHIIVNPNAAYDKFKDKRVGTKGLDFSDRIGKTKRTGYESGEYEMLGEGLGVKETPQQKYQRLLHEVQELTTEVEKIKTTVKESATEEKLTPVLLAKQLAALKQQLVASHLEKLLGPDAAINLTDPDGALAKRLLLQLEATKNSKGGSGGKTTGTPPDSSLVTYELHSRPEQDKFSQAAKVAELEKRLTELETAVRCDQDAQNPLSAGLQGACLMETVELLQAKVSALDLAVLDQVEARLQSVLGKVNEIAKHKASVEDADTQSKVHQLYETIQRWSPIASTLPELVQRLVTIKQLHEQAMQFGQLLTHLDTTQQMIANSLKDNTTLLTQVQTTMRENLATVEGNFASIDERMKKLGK
Test: competitive isoTOP-ABPP
Assay type: binding
Settings: Q13561_K175; 50 uM, 231 sol, in vitro
quantityKind: R value (DMSO/fragment) for probe 1 labeling
Format: numeric value only, no unit, no commentary.

Examples with their reported R value (DMSO/fragment) for probe 1 labeling follow.
molecule: Cn1cc(CC(=O)Oc2c(F)c(F)c(F)c(F)c2F)c2ccccc21
obsValue: 1.7
--
molecule: O=C(Oc1c(F)c(F)c(F)c(F)c1F)C(c1ccccc1)c1ccccc1 [fragment 20, Pentafluorophenyl 2,2-diphenylacetate]
obsValue: 1.0
--
molecule: COc1cc(CCC(=O)Oc2c(F)c(F)c(F)c(F)c2F)cc(OC)c1OC
obsValue: 1.1

Reported R value (DMSO/fragment) for probe 1 labeling ( `O=C(Oc1c(F)c(F)c(F)c(F)c1F)c1cc(C(F)(F)F)cc(C(F)(F)F)c1` ) = 0.9

====

Target: ENOPH1 Enolase-phosphatase E1 (Homo sapiens, UniProt Q9UHY7)
Construct: endogenous in cells; host or cells: MDA-MB-231 (soluble fraction of lysate)
Sequence (Q9UHY7 whole entry): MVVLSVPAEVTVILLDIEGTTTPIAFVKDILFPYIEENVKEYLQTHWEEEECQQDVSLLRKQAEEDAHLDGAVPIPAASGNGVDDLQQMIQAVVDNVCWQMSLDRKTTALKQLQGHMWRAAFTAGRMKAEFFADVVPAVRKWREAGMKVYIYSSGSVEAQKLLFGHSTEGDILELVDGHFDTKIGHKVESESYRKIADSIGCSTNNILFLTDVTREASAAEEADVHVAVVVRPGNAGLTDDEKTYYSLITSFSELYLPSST
Assay: competitive isoTOP-ABPP
Format: binding
Conditions: 50 uM, in vitro, sol, 231
The reader will find reported isoTOP-ABPP ratio (R) at liganded lysine Q9UHY7_K111 values listed item by item below.
Format: numeric value only, no unit, no commentary.

Below: 5 compounds and their reported isoTOP-ABPP ratio (R) at liganded lysine Q9UHY7_K111.
compound: O=C(CCc1coc2cc(F)ccc2c1=O)Oc1ccc([N+](=O)[O-])cc1[N+](=O)[O-]
targetSystem: ENOPH1 Enolase-phosphatase E1 (Homo sapiens, UniProt Q9UHY7)
obsValue: 0.9
//
compound: O=C(Oc1ccc([N+](=O)[O-])cc1[N+](=O)[O-])C1CCN(C(=O)OCc2ccccc2)CC1
targetSystem: ENOPH1 Enolase-phosphatase E1 (Homo sapiens, UniProt Q9UHY7)
obsValue: 0.9
//
compound: O=C(Oc1ccc([N+](=O)[O-])cc1[N+](=O)[O-])c1ccc2ccccc2n1
targetSystem: ENOPH1 Enolase-phosphatase E1 (Homo sapiens, UniProt Q9UHY7)
obsValue: 1.0
//
compound: CC(=O)Oc1ccc([N+](=O)[O-])cc1[N+](=O)[O-] [fragment 43, 2,4-Dinitrophenyl acetate]
targetSystem: ENOPH1 Enolase-phosphatase E1 (Homo sapiens, UniProt Q9UHY7)
obsValue: 0.9
//
compound: O=C(Oc1ccc([N+](=O)[O-])cc1[N+](=O)[O-])c1ccccc1Nc1cccc(C(F)(F)F)c1
targetSystem: ENOPH1 Enolase-phosphatase E1 (Homo sapiens, UniProt Q9UHY7)
obsValue: 0.7

Please find the next compound below.
Known value: ENOPH1 Enolase-phosphatase E1 (Homo sapiens, UniProt Q9UHY7) isoTOP-ABPP ratio (R) at liganded lysine Q9UHY7_K111 of the compound `O=C(Oc1ccc([N+](=O)[O-])cc1[N+](=O)[O-])c1ccc(-c2ccccc2)cc1` equals 0.9

====

Molecular target: NT5DC1 5-nucleotidase domain-containing protein 1 (Homo sapiens, UniProt Q5TFE4)
Construct: isoTOP-ABPP experiments performed in cell lysates (in vitro); endogenous in cells; host or cells: soluble proteome of human cancer cell lines (MDA-MB-231; Ramos and Jurkat also prepared)
Sequence (Q5TFE4 whole entry, the tested form may be a part): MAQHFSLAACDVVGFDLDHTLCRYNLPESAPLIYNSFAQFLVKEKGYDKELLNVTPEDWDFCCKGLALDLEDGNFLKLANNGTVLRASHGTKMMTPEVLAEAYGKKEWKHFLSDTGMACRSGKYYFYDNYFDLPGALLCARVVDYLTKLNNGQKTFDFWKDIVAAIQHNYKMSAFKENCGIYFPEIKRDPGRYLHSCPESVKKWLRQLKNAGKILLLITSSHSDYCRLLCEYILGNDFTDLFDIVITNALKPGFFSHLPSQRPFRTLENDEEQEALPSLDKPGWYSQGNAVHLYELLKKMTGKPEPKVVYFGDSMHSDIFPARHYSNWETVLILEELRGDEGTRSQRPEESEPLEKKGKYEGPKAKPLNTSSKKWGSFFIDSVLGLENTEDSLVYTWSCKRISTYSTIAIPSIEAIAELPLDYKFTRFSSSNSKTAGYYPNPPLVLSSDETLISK
Assay: competitive isoTOP-ABPP
Type: binding
Conditions: Q5TFE4_K123; 50 uM, 231 sol, in vitro
Reported R value (DMSO/fragment) for probe 1 labeling by item:
Kindly provide the number alone.

compound: COc1cc(CCC(=O)Oc2c(F)c(F)c(F)c(F)c2F)cc(OC)c1OC
obsValue: 1.5
//
compound: O=C(Oc1c(F)c(F)c(F)c(F)c1F)C(c1ccccc1)c1ccccc1 [fragment 20, Pentafluorophenyl 2,2-diphenylacetate]
obsValue: 1.0

// R value (DMSO/fragment) for probe 1 labeling value for `O=C(Oc1c(F)c(F)c(F)c(F)c1F)c1cc(C(F)(F)F)cc(C(F)(F)F)c1` : 1.2

For `O=C(CCc1cn(-c2ccccc2)nc1-c1ccccc1)Oc1c(F)c(F)c(F)c(F)c1F` the compound record lists R value (DMSO/fragment) for probe 1 labeling as 20.0

====

Target: TRAP1 Heat shock protein 75 kDa, mitochondrial (Homo sapiens, UniProt Q12931)
Construct: isoTOP-ABPP experiments performed in cell lysates (in vitro); endogenous in cells; host or cells: soluble proteome of human cancer cell lines (MDA-MB-231, Ramos, Jurkat)
Sequence (Q12931 60-704): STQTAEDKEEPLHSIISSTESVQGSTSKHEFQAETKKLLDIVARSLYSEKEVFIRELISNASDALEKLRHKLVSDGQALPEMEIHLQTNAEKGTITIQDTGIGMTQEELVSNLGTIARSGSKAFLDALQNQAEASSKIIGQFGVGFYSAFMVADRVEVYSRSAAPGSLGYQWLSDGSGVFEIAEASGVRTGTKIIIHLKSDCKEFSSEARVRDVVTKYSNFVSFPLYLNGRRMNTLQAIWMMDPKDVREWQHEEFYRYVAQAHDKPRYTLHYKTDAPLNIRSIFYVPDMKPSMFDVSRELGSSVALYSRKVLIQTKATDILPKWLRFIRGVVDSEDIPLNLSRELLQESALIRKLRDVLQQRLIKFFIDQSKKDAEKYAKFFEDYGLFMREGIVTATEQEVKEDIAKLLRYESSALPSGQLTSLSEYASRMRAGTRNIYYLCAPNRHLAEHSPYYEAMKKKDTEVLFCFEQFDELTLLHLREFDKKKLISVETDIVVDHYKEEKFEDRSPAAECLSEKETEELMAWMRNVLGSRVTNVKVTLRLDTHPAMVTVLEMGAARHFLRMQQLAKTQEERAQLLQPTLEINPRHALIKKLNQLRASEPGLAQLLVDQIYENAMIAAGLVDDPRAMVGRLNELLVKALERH
Assay: competitive isoTOP-ABPP
Type: binding
Conditions: 50 uM_231_sol_in vitro
quantityKind: isoTOP-ABPP ratio, lysine Q12931_K699
// response body must contain only the number

Here is how some compounds turned out for isoTOP-ABPP ratio, lysine Q12931_K699.
compound: O=C(CCc1ccc2c(c1)OCO2)Oc1ccc([N+](=O)[O-])cc1[N+](=O)[O-]
targetSystem: TRAP1 Heat shock protein 75 kDa, mitochondrial (Homo sapiens, UniProt Q12931)
isoTOP-ABPP ratio, lysine Q12931_K699: 1.4
--
compound: O=C(Oc1c(F)c(F)c(C(F)(F)F)c(F)c1F)c1cc(C(F)(F)F)cc(C(F)(F)F)c1
targetSystem: TRAP1 Heat shock protein 75 kDa, mitochondrial (Homo sapiens, UniProt Q12931)
isoTOP-ABPP ratio, lysine Q12931_K699: 1.1
--
compound: O=C(Oc1c(F)c(F)cc(F)c1F)c1cc(C(F)(F)F)cc(C(F)(F)F)c1
targetSystem: TRAP1 Heat shock protein 75 kDa, mitochondrial (Homo sapiens, UniProt Q12931)
isoTOP-ABPP ratio, lysine Q12931_K699: 1.0
--
compound: O=C(ON1C(=O)CCC1=O)c1cc(C(F)(F)F)cc(C(F)(F)F)c1
targetSystem: TRAP1 Heat shock protein 75 kDa, mitochondrial (Homo sapiens, UniProt Q12931)
isoTOP-ABPP ratio, lysine Q12931_K699: 0.9
--
compound: NC(=O)c1cc(C(F)(F)F)cc(C(F)(F)F)c1 [fragment 51, reference compound]
targetSystem: TRAP1 Heat shock protein 75 kDa, mitochondrial (Homo sapiens, UniProt Q12931)
isoTOP-ABPP ratio, lysine Q12931_K699: 1.2

With those in mind, consider the next compound.
Readout isoTOP-ABPP ratio, lysine Q12931_K699 for N#Cc1ccc(C(=O)Oc2ccc([N+](=O)[O-])cc2[N+](=O)[O-])cc1 [fragment 44, 2,4-Dinitrophenyl 4-cyanobenzoate] , test system TRAP1 Heat shock protein 75 kDa, mitochondrial (Homo sapiens, UniProt Q12931), was 0.9

====

Biological target: LDHB L-lactate dehydrogenase B chain (Homo sapiens)
Construct: isoTOP-ABPP experiments performed in cell lysates (in vitro); endogenous in cells; host or cells: MDA-MB-231 soluble lysate
Sequence (P07195 whole entry): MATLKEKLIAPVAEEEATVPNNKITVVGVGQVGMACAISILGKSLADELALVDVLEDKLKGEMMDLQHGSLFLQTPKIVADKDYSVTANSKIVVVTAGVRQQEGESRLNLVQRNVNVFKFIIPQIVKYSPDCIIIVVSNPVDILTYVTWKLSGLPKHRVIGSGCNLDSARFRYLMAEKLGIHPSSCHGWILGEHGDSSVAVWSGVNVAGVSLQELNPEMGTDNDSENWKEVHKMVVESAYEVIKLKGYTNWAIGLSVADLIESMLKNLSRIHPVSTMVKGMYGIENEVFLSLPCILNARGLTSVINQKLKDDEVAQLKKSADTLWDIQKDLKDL
Test: competitive isoTOP-ABPP
Assay type: binding
Conditions: 50 uM, in vitro, sol, 231
quantityKind: isoTOP-ABPP ratio (R) at liganded lysine P07195_K82
Could you keep your reply to the number by itself?

Worked cases, isoTOP-ABPP ratio (R) at liganded lysine P07195_K82 given:
molecule: O=C(Oc1ccc([N+](=O)[O-])cc1[N+](=O)[O-])c1ccccc1Nc1cccc(C(F)(F)F)c1
obsValue: 20.0

molecule: O=C(Oc1ccc([N+](=O)[O-])cc1[N+](=O)[O-])c1ccc(Oc2ccccc2)cc1 [fragment 39, 2,4-Dinitrophenyl 4-phenoxybenzoate]
obsValue: 20.0

molecule: O=C(CCc1coc2cc(F)ccc2c1=O)Oc1ccc([N+](=O)[O-])cc1[N+](=O)[O-]
obsValue: 0.9

molecule: O=C(Oc1ccc([N+](=O)[O-])cc1[N+](=O)[O-])C(c1ccccc1)(c1ccccc1)c1ccccc1 [fragment 42, 2,4-Dinitrophenyl 2,2,2-triphenylacetate]
obsValue: 20.0

# value of isoTOP-ABPP ratio (R) at liganded lysine P07195_K82, LDHB L-lactate dehydrogenase B chain (Homo sapiens), item `O=C(CC12CC3CC(CC(C3)C1)C2)Oc1ccc([N+](=O)[O-])cc1[N+](=O)[O-]` = 0.7

# lookup: `O=C(Oc1ccc([N+](=O)[O-])cc1[N+](=O)[O-])c1ccc2ccccc2n1` on LDHB L-lactate dehydrogenase B chain (Homo sapiens), isoTOP-ABPP ratio (R) at liganded lysine P07195_K82 = 0.6

Lab note: molecule `O=C(Oc1ccc([N+](=O)[O-])cc1[N+](=O)[O-])c1ccc(-c2ccccc2)cc1` tested on LDHB L-lactate dehydrogenase B chain (Homo sapiens); recorded isoTOP-ABPP ratio (R) at liganded lysine P07195_K82 was 0.8
